Test system: RPMI-8226 leukemia
Assay: NCI-60 one-dose screen, 48 h
Settings: 10 µM unless noted
About 83,000 compounds went through this panel and 20% of them were active in at least one assay; those are over-represented in the sample as a whole. Calls of active or inactive are those of the source. The calls were made as follows: active = growth percent below 10; inactive = the rest.
Parameter call: string, one of active, inactive

Recorded results for 3 compounds are shown here.
-- ask Per the records of this test, what outcome belongs to "CCOc1nc(-c2ccccc2)cc2c(O)c(C(=O)N/N=C/c3ccc(N(C)C)cc3)[nH]c(=O)c12" ?
-- reply inactive

-- ask Per the records of this test, what outcome belongs to CC1(Cc2ccccc2)CC2=C(C(=O)O1)C(c1ccccc1)NC(=O)N2 (stereo not given) ?
-- reply inactive

-- ask Per the records of this test, what outcome belongs to COc1ccc(/C=N/C2=C(C#N)C(c3ccccc3)c3c(ccc4ccccc34)O2)cc1 (stereo not given) ?
-- reply active

More entries:
-- ask Per the records of this test, what outcome belongs to "COc1ccc(-c2cc3cnc4ccccc4c3oc2=O)cc1" ?
-- reply inactive

-- ask Per the records of this test, what outcome belongs to "COc1cc(-c2nn(-c3cccc(NC(=O)CCN4CCN(C)CC4)c3)cc2-c2ccncc2)ccc1Cl" ?
-- reply active
